- assaySystem: human M3 receptor (Homo sapiens)
- Construct: expressed in transfected cells
- Sequence (P20309 whole entry): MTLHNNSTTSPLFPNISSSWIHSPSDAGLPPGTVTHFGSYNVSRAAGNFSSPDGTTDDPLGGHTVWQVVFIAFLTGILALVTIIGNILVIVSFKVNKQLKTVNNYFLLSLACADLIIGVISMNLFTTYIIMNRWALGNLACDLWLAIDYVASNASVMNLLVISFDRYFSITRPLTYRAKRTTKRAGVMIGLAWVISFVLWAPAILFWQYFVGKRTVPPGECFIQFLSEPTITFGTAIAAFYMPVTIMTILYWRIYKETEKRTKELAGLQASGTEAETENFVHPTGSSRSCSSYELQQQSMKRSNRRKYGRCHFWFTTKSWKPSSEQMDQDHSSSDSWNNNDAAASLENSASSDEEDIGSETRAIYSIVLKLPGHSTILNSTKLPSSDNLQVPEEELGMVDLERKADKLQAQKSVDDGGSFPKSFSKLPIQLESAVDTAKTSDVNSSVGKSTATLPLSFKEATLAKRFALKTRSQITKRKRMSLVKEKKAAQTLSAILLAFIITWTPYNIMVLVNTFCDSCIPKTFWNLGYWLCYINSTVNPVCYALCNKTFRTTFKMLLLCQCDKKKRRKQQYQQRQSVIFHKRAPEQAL
- assayName: HTRF IP-One curve shift assay, M3
- Type: cell-based
- experimentalSetup: MK-4710 concentration 41.2 nM, read-out: Emax
- Description: HTRF IP-One assays were performed using frozen cell aliquots prepared from CHO-K1 cell lines stably expressing human M1, M3, or M5 receptors. Cells were frozen following typical cell freezing protocols. […] Six μL of IP-1 detection reagents (IP-One Gq HTRF kit, Cisbio Cat #62IPAPEJ) were dispensed to the cells. […] Then, plates were read on an Envision plate reader following the Cisbio guidelines. Raw data for all assays was transmitted directly from plate readers into the Beacon database for processing. […]
Emax values for the compounds below.

compound: CCCCCCCOc1nsnc1C1=CCCCN1C
Emax: 75.4%

compound: CCCCCCOc1nsnc1C1=CCCN(C)C1 [xanomeline, reference compound]
Emax: 94.3%

compound: CCCCCOc1nsnc1C1=CCCCN1C
Emax: 49.5%

compound: CC1OC2(CS1)CN1CCC2CC1 (stereo not shown) [cevimeline, Cevimeline, reference compound]
Emax: 151%

---

- assaySystem: human M1 receptor (Homo sapiens, UniProt P11229)
- Construct: expressed in transfected cells
- Sequence (P11229 whole entry): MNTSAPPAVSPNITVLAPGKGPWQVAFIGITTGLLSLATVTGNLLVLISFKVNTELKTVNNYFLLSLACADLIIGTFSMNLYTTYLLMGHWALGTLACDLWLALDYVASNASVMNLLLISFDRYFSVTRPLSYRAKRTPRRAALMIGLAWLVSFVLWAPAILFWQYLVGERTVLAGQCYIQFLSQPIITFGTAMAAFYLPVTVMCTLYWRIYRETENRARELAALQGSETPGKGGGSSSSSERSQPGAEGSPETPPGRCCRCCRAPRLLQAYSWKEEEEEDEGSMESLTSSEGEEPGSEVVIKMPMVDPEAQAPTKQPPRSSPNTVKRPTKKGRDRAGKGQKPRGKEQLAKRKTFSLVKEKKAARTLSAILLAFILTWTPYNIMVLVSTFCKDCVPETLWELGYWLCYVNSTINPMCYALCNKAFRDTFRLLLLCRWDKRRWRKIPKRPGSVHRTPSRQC
- assayName: HTRF IP-One curve shift assay, M1
- Format: cell-based
- experimentalSetup: MK-4710 concentration 123 nM
- Description: HTRF IP-One assays were performed using frozen cell aliquots prepared from CHO-K1 cell lines stably expressing human M1, M3, or M5 receptors. Cells were frozen following typical cell freezing protocols. […] Six μL of IP-1 detection reagents (IP-One Gq HTRF kit, Cisbio Cat #62IPAPEJ) were dispensed to the cells. […] Then, plates were read on an Envision plate reader following the Cisbio guidelines. Raw data for all assays was transmitted directly from plate readers into the Beacon database for processing. […]
measurementType: EC50

molecule: CCCCCCCOc1nsnc1C1=CCCCN1C
measurementType: EC50
endpointValue: 8.3 nM

---

- assaySystem: human M5 receptor (Homo sapiens, UniProt P08912)
- Construct: expressed in transfected cells
- Sequence (P08912 1-532): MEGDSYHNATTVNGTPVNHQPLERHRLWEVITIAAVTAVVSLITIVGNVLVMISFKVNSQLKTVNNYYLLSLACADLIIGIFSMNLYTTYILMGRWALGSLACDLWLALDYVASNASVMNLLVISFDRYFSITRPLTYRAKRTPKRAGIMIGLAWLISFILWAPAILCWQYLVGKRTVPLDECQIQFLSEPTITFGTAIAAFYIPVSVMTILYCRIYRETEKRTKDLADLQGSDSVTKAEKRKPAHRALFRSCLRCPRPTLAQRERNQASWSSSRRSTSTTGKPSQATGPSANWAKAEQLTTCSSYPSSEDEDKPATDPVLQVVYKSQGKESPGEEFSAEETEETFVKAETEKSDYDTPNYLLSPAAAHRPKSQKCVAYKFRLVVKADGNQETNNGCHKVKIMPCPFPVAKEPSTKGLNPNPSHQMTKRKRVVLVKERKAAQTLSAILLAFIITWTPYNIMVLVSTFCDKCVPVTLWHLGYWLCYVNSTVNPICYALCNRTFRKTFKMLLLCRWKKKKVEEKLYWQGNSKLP
- assayName: HTRF IP-One curve shift assay, M5
- Assay type: cell-based
- experimentalSetup: M5; Emraclidine concentration 123 nM
pEC50: −log10 of the molar value.
measurementType: pEC50

molecule: CCCCCOc1nsnc1C1=CCCCN1C [KTX-517]
endpointValue: 6.93
